# MEASURED ON: Cellular tumor antigen p53 (Homo sapiens) (UniProt P04637)
# Sequence (P04637 whole entry, looked up): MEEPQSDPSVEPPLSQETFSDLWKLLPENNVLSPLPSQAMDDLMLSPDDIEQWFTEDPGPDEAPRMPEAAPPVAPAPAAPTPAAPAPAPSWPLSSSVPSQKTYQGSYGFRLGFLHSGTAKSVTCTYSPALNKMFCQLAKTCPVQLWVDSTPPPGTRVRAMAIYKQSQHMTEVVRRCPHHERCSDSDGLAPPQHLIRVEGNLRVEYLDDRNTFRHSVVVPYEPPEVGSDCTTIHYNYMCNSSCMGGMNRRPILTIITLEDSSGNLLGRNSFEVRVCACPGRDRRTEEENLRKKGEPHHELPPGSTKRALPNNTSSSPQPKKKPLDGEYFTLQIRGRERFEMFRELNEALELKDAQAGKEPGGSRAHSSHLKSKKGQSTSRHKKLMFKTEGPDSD
# TEST SUMMARY: TOX21_p53_BLA_p2_ratio: Tox21 HCT-116 p53 Agonism Beta-lactamase Assay, Ratio, Phase 2 (AID 2283592)
Records with an inconclusive call do not appear. The source made the active and inactive calls. Rule for the calls: active = hit-call score of the fitted dose curve at least 0.9, where 1 is the maximum; inconclusive = response in the unintended direction; inactive = score below 0.9.
Pick one: active, inactive

The examples below pair each entry with its known result.
CO[C@H]1C[C@H](O[C@H]2[C@H](C)O[C@@H](O[C@@H]3/C(C)=C/C[C@@H]4C[C@@H](C[C@]5(C=C[C@H](C)[C@@H](C6CCCCC6)O5)O4)OC(=O)[C@@H]4C=C(C)[C@@H](O)[C@H]5OC/C(=C\C=C\[C@@H]3C)[C@]54O)C[C@@H]2OC)O[C@@H](C)[C@@H]1O :: inactive
CCCCCCC1CCCC(=O)O1 (stereo not drawn) :: inactive
CN(CC1(C)CCCO1)S(=O)(=O)c1ccc(Cl)c(S(N)(=O)=O)c1 (stereo not drawn) :: inactive

Next:
Record request — test call for CCCCC(=O)O[C@H]1CC[C@H]2[C@@H]3CCc4cc(O)ccc4[C@H]3CC[C@]12C
inactive
